molecular target: sGC α1/β1 heterodimer (Homo sapiens (Human), UniProt Q02108+Q02153); assay: Cell-based sGC functional assay (cyclic GMP assay for sGC activator: CASA assay); conditions: inflection point, 4P fit; CHO-K1/sGC cells; read-out: IP
pEC50: −log10 of the molar value.
observed.property: pEC50

Here is how some molecules turned out for pEC50.
>>> measurement("CC(C)(Cc1csc([C@]2(C)C(=O)Nc3nc(-c4nn(Cc5ccccc5F)c5cc(F)ccc45)nc(N)c32)n1)C(=O)O [Example 62A]")
6.85
>>> measurement("CC1(c2cccc(-c3nn[nH]n3)c2)C(=O)Nc2nc(-c3nn(Cc4ccccc4F)c4cc(F)ccc34)nc(N)c21 (stereo not shown) [Example 249B]")
5.58
>>> measurement("CC1(c2ccc(C(=O)O)cc2)C(=O)Nc2nc(-c3nn(Cc4ccccc4F)c4cc(Cl)ccc34)nc(N)c21 (stereo not shown) [Example 209B]")
5.61

1. CC(Cc1ccc(C2(C)C(=O)Nc3nc(-c4nn(CCC(F)(F)C(F)(F)F)c5cc(Cl)ccc45)nc(N)c32)cc1)C(=O)O (single isomer, unassigned) [Example 34AB]
2. CC1(c2ccc(CC(=O)O)cc2)C(=O)Nc2nc(-c3nn(Cc4ccccc4F)c4cc(Cl)ccc34)nc(N)c21 (stereo not shown) [Example 117A]
Exercise: Between the entries labeled 1 and 2 , whose measured pEC50 is lower? Refer to your chosen item by its label in the answer.
Key: 1
(1: 6.11, 2: 6.52)

----------
biological target: human recombinant sGC enzyme (Homo sapiens (Human), UniProt Q02108+Q02153); assay: Size Exclusion Chromatography (SEC) competition binding assay using [3H] Ex-77B as the radioligand; conditions: [3H] Ex-77B radioligand, 24 hours at 37° C.
pKi: −log10 of the molar value.
observed.property: pKi

Worked set:
>>> measurement("C[C@@]1(c2ccc(CCC(=O)O)cc2)C(=O)Nc2nc(-c3nn(CC4CCCCO4)c4cc(Cl)ccc34)nc(N)c21 (single isomer, unassigned)")
9.89
>>> measurement("CCCCCCn1nc(-c2nc(N)c3c(n2)NC(=O)[C@@]3(C)c2ccc(CCC(=O)O)cc2)c2ccc(Cl)cc21 [Example 45B]")
9.74
>>> measurement("CC(C)(Cc1cccc(C2(C)C(=O)Nc3nc(-c4nn(CCC(F)(F)C(F)(F)F)c5cc(Cl)ccc45)nc(N)c32)c1)C(=O)O (stereo not drawn) [Example 27B]")
9.66
>>> measurement("CC(C)(Cc1ccc(C2(C)C(=O)Nc3nc(-c4nn(CCCC(F)(F)F)c5cc(Cl)ccc45)nc(N)c32)cc1)C(=O)O (stereo not drawn) [Example 42B]")
9.02

a. CC(C)(Cc1csc([C@]2(C)C(=O)Nc3nc(-c4nn(CC5CCCC5)c5ncccc45)nc(N)c32)n1)C(=O)O (single isomer, unassigned) [Example 153A]
b. Cc1nc([C@]2(C)C(=O)Nc3nc(-c4nn(CCC(F)(F)C(F)(F)F)c5ncccc45)nc(N)c32)sc1CC(=O)O [Example 83B]
Exercise: Which of the two gives a bigger number for pKi: a or b ? // output: label of the selected item
Key: a

----------
target: human recombinant sGC enzyme (Homo sapiens (Human), UniProt Q02108+Q02153); experiment: Size Exclusion Chromatography (SEC) competition binding assay using [3H] Ex-77B as the radioligand; conditions: [3H] Ex-77B radioligand, 24 hours at 37° C.
observed.property: Ki (nM)

>>> measurement("CC1(c2ccc(CCc3nn[nH]n3)cn2)C(=O)Nc2nc(-c3nn(Cc4ccccc4F)c4cc(Cl)ccc34)nc(N)c21 (single isomer, unassigned) [Example 247A]")
0.242
>>> measurement("Cc1ccnc(Cn2nc(-c3nc(N)c4c(n3)NC(=O)C4(C)c3nc(CC(C)(C)C(=O)O)co3)c3ccc(Cl)cc32)c1F (stereo not shown) [Example 215A]")
0.189
>>> measurement("CC1(c2cccc(C(=O)O)c2)C(=O)Nc2nc(-c3nn(Cc4ccccc4F)c4cc(F)ccc34)nc(N)c21 (stereo not shown) [Example 191B]")
0.109
>>> measurement("CC(Cc1ccc(C2(C)C(=O)Nc3nc(-c4nn(CCC(F)(F)C(F)(F)F)c5cc(Cl)ccc45)nc(N)c32)cc1)C(=O)O (single isomer, unassigned) [Example 34AA]")
0.138
>>> measurement("CC1(c2ccc(CC(=O)O)cc2)C(=O)Nc2nc(-c3nn(Cc4ccccc4F)c4ncccc34)nc(N)c21 (stereo not shown) [Example 114A]")
0.092
>>> measurement("CC(C)(Cc1coc(C2(C)C(=O)Nc3nc(-c4nn(Cc5cccc(F)c5)c5ccccc45)nc(N)c32)n1)C(=O)O (stereo not shown) [Example 223A]")
0.05
>>> measurement("CC(C)(Cc1csc([C@]2(C)C(=O)Nc3nc(-c4nn(CC5CCCCC5)c5cc(F)ccc45)nc(N)c32)n1)C(=O)O [Example 201A]")
0.151
>>> measurement("CC1(c2nn(CC(=O)O)c(=O)o2)C(=O)Nc2nc(-c3nn(CCC(F)(F)C(F)(F)F)c4cc(Cl)ccc34)nc(N)c21 (stereo not shown) [Example 98A]")
0.395

1. CC(C)(Cc1coc(C2(C)C(=O)Nc3nc(-c4nn(Cc5cccc(F)c5F)c5cc(F)ccc45)nc(N)c32)n1)C(=O)O (stereo not shown) [Example 200A]
2. CC(C)(Cc1coc(C2(C3CC3)C(=O)Nc3nc(-c4nn(Cc5ccccc5F)c5cc(F)ccc45)nc(N)c32)n1)C(=O)O (stereo not shown) [Example 139B]
3. CC(C)(Cc1coc(C2(C)C(=O)Nc3nc(-c4nn(CC5CCCCO5)c5cc(F)ccc45)nc(N)c32)n1)C(=O)O (single isomer, unassigned) [Example 134AB]
4. CC(C)(Cc1coc(C2(C)C(=O)Nc3nc(-c4nn(CC5CCCCC5)c5cc(F)ccc45)nc(N)c32)n1)C(=O)O (stereo not shown) [Example 202A]
Exercise: Descending sort on Ki required. Would you mind listing the labels in the order asked for?
Key: 3, 4, 2, 1

----------
Target: human recombinant sGC enzyme (Homo sapiens (Human), UniProt Q02108+Q02153)
Experiment: Size Exclusion Chromatography (SEC) competition binding assay using [3H] Ex-77B as the radioligand
Settings: [3H] Ex-77B radioligand, 24 hours at 37° C.
Description: Binding Assay: The binding potencies of sGC compounds to the human recombinant sGC enzyme were determined in a Size Exclusion Chromatography (SEC) competition binding assay using [^3H] Ex-77B as the radioligand. [^3H] […] The sealed plates were shaken vigorously and span, and counted after 6 hours with a Wallac Microbeta TriLux 1450 LSC & Luminescence Counter (Perkin Elmer). Data from competition experiments were analyzed to determine Ki values using one site fit Ki equation.
observed.property: Ki (nM)

>>> measurement("CCCCCn1nc(-c2nc(N)c3c(n2)NC(=O)[C@@]3(C)c2ccc(CCC(=O)O)cc2)c2ccc(Cl)cc21 [Example 43B]")
0.096

I. CC(C)(Cc1csc([C@]2(C)C(=O)Nc3nc(-c4nn(Cc5ccccc5F)c5ncccc45)nc(N)c32)n1)c1nn[nH]n1 [Example 241A]
II. Cc1cccc(Cn2nc(-c3nc(N)c4c(n3)NC(=O)[C@@]4(C)c3ccc(CCC(=O)O)cc3)c3ccc(Cl)cc32)c1 [Example 66B]
Exercise: Of the two listed items, I and II , which carries the larger Ki figure? Pick one and reply with its label.
Key: II
(II: 0.495 nM, I: 0.121 nM)

----------
biological target: sGC α1/β1 heterodimer (Homo sapiens (Human), UniProt Q02108+Q02153); test: Cell-based sGC functional assay (cyclic GMP assay for sGC activator: CASA assay); settings: CHO-K1, activity expressed as percentage of compound A (standard); CHO-K1/sGC cells; read-out: % Activation
observed.property: Emax (%)

>>> measurement("CC(C)(CCc1coc(C2(C)C(=O)Nc3nc(-c4nn(Cc5cccc(F)c5)c5cc(F)ccc45)nc(N)c32)n1)C(=O)O (stereo not drawn) [Example 197B]")
106
>>> measurement("CC1(c2ccc(C(=O)O)cn2)C(=O)Nc2nc(-c3nn(Cc4ccccc4F)c4cc(Cl)ccc34)nc(N)c21 (stereo not drawn) [Example 254A]")
123
>>> measurement("CC(C)(Cc1csc([C@]2(C)C(=O)Nc3nc(-c4nn(Cc5ccccc5F)c5ncccc45)nc(N)c32)n1)c1nn[nH]n1 [Example 241A]")
94.8
>>> measurement("CC(C)(Cc1csc([C@]2(C)C(=O)Nc3nc(-c4nn(Cc5ccc(F)cc5F)c5cc(Cl)ccc45)nc(N)c32)n1)C(=O)O [Example 179A]")
118
>>> measurement("C[C@@]1(c2ccc(CCC(=O)O)cc2)C(=O)Nc2nc(-c3nn(CC45CC6CC(CC(C6)C4)C5)c4cc(Cl)ccc34)nc(N)c21 [Example 70B]")
120
>>> measurement("CC1(c2cn(C(C)(C)C(=O)O)nn2)C(=O)Nc2nc(-c3nn(CCC(F)(F)C(F)(F)F)c4cc(Cl)ccc34)nc(N)c21 (stereo not drawn) [Example 30B]")
93

All figures here come from patent US10030027B2.
